target: Collagenase 3 (Homo sapiens); assay: Inhibition of C-terminal tagged human recombinant MMP13 catalytic domain expressed in Escherichia coli using (5-FAM/QX) FRET peptide as substrate by fluorescence assay; details: read-out: IC50
pIC50: −log10 of the molar value.
# binarize pIC50: threshold 7 inclusive, high side Criterion met, low side Criterion not met

Solved entries (count: 3):
compound: COc1cc(CNC(=O)C#Cc2cn(Cc3ccc(C(=O)NCCO)cc3)c(=O)[nH]c2=O)ccc1F
discrete.label: Criterion met
--
compound: COc1cc(CNC(=O)C#Cc2cn(Cc3ccc(S(N)(=O)=O)cc3)c(=O)[nH]c2=O)ccc1F
discrete.label: Criterion not met
--
compound: COc1cc(CNC(=O)C#Cc2cn(Cc3ccc(C(=O)N[C@@H](CO)C(=O)O)cc3)c(=O)[nH]c2=O)ccc1F
discrete.label: Criterion met

Does the compound CNS(=O)(=O)c1ccc(Cn2cc(C#CC(=O)NCc3ccc(F)c(OC)c3)c(=O)[nH]c2=O)cc1 have recorded pIC50 that is 7 or more?
Criterion met

Does the compound COc1cc(CNC(=O)C#Cc2cn(Cc3ccc(-c4cnco4)cc3)c(=O)[nH]c2=O)ccc1F have recorded pIC50 that is 7 or more?
Criterion met

Does the compound COC(=O)[C@H]1CCCN1C(=O)c1ccc(Cn2cc(C#CC(=O)NCc3ccc(F)c(OC)c3)c(=O)[nH]c2=O)cc1 have recorded pIC50 that is 7 or more?
Criterion not met

Does the compound COC(=O)CNS(=O)(=O)c1ccc(Cn2cc(C#CC(=O)NCc3ccc(F)c(OC)c3)c(=O)[nH]c2=O)cc1 have recorded pIC50 that is 7 or more?
Criterion met

---

Hi there, I'd appreciate the recorded Activity for every entry that follows.
target: Collagenase 3 (Homo sapiens, UniProt P45452); assay: Inhibition of C-terminal tagged human recombinant MMP13 catalytic domain expressed in Escherichia coli assessed as residual activity at 10 uM using (5-FAM/QX) FRET peptide as substrate by fluorescence assay relative to control
Answers are plain numbers, in %.

Reference set (4 entries):
mol.smiles: COc1cc(CNC(=O)C#Cc2cn(Cc3ccc(C(=O)N4CCC[C@@H]4C(=O)O)cc3)c(=O)[nH]c2=O)ccc1F
measured.endpoint: Activity
observed: 1.9
--
mol.smiles: COc1cc(CNC(=O)C#Cc2cn(Cc3ccc(S(=O)(=O)NC(C)C)cc3)c(=O)[nH]c2=O)ccc1F
measured.endpoint: Activity
observed: 2.2
--
mol.smiles: CNS(=O)(=O)c1ccc(Cn2cc(C#CC(=O)NCc3ccc(F)c(OC)c3)c(=O)[nH]c2=O)cc1
measured.endpoint: Activity
observed: 1.8
--
mol.smiles: COc1cc(CNC(=O)C#Cc2cn(Cc3ccc(S(=O)(=O)N(C)C)cc3)c(=O)[nH]c2=O)ccc1F
measured.endpoint: Activity
observed: 5.8

Dear colleague, could you please provide Activity for the molecules listed below?
1. COc1cc(CNC(=O)C#Cc2cn(Cc3ccc(C(=O)N(C)C)cc3)c(=O)[nH]c2=O)ccc1F
2. COC(=O)CNC(=O)c1ccc(Cn2cc(C#CC(=O)NCc3ccc(F)c(OC)c3)c(=O)[nH]c2=O)cc1
3. COc1cc(CNC(=O)C#Cc2cn(Cc3ccc(C(=O)NC(C)(C)C)cc3)c(=O)[nH]c2=O)ccc1F

1. 1.4
2. 12.2
3. 13.3

Dear colleague, could you please provide Activity for the molecules listed below?
1. COC(=O)c1ccc(Cn2cc(C#CC(=O)NCc3ccc(F)c(OC)c3)c(=O)[nH]c2=O)cc1
2. COc1cc(CNC(=O)C#Cc2cn(Cc3ccc(C(=O)NCC(=O)O)cc3)c(=O)[nH]c2=O)ccc1F
3. COc1cc(CNC(=O)C#Cc2cn(Cc3ccc(C(N)=O)cc3)c(=O)[nH]c2=O)ccc1F
4. COc1cc(CNC(=O)C#Cc2cn(Cc3ccc(C(=O)NC4CC4)cc3)c(=O)[nH]c2=O)ccc1F
5. COC(=O)[C@H](CO)NC(=O)c1ccc(Cn2cc(C#CC(=O)NCc3ccc(F)c(OC)c3)c(=O)[nH]c2=O)cc1
6. COc1cc(CNC(=O)C#Cc2cn(Cc3ccc(C(=O)NC(C)C)cc3)c(=O)[nH]c2=O)ccc1F
7. COC(=O)[C@H](C)NC(=O)c1ccc(Cn2cc(C#CC(=O)NCc3ccc(F)c(OC)c3)c(=O)[nH]c2=O)cc1

4.6
5.1
4.4
5.9
3.9
14.2
2.5

Dear colleague, could you please provide Activity for the molecules listed below?
1. COc1cc(CNC(=O)C#Cc2cn(Cc3ccc(S(=O)(=O)NC4CC4)cc3)c(=O)[nH]c2=O)ccc1F
2. COc1cc(CNC(=O)C#Cc2cn(Cc3ccc(C(=O)N[C@@H](CO)C(=O)O)cc3)c(=O)[nH]c2=O)ccc1F
3. COC(=O)[C@H]1CCCN1C(=O)c1ccc(Cn2cc(C#CC(=O)NCc3ccc(F)c(OC)c3)c(=O)[nH]c2=O)cc1
4. COC(=O)CNS(=O)(=O)c1ccc(Cn2cc(C#CC(=O)NCc3ccc(F)c(OC)c3)c(=O)[nH]c2=O)cc1
5. COc1cc(CNC(=O)C#Cc2cn(Cc3ccc(S(N)(=O)=O)cc3)c(=O)[nH]c2=O)ccc1F

2.2
0.8
1.8
2.1
3.9

---

target: UniProt P09238; assay: Inhibition of MMP10 (unknown origin) assessed using (5-FAM/QX) FRET peptide as substrate by fluorescence assay; conditions: read-out: pIC50 (converted)
Hi there, I'd appreciate the recorded IC50 for every entry that follows.

Reference set (3 entries):
compound: COC(=O)CNS(=O)(=O)c1ccc(Cn2cc(C#CC(=O)NCc3ccc(F)c(OC)c3)c(=O)[nH]c2=O)cc1
assay.target: UniProt P09238
measured.endpoint: IC50
observed: 245 to 437 nM
--
compound: COC(=O)[C@H](C)NC(=O)c1ccc(Cn2cc(C#CC(=O)NCc3ccc(F)c(OC)c3)c(=O)[nH]c2=O)cc1
assay.target: UniProt P09238
measured.endpoint: IC50
observed: 490 to 1070 nM
--
compound: COc1cc(CNC(=O)C#Cc2cn(Cc3ccc(C(=O)N(C)C)cc3)c(=O)[nH]c2=O)ccc1F
assay.target: UniProt P09238
measured.endpoint: IC50
observed: 186 to 589 nM

Dear colleague, could you please provide IC50 for the compounds listed below?
1. COC(=O)c1ccc(Cn2cc(C#CC(=O)NCc3ccc(F)c(OC)c3)c(=O)[nH]c2=O)cc1
2. COc1cc(CNC(=O)C#Cc2cn(Cc3ccc(S(=O)(=O)NC(C)C)cc3)c(=O)[nH]c2=O)ccc1F
3. COc1cc(CNC(=O)C#Cc2cn(Cc3ccc(S(=O)(=O)NC(C)(C)C)cc3)c(=O)[nH]c2=O)ccc1F

1. 457 to 562 nM
2. 67.6 to 141 nM
3. 51.3 to 141 nM

Dear colleague, could you please provide IC50 for the compounds listed below?
1. COc1cccc(CNC(=O)c2nc3scc(COCc4ccc(C(=O)O)cc4)c3c(=O)[nH]2)c1 [T-26c]
2. COc1cc(CNC(=O)C#Cc2cn(Cc3ccc(C(=O)N[C@@H](CO)C(=O)O)cc3)c(=O)[nH]c2=O)ccc1F
3. COc1cc(CNC(=O)C#Cc2cn(Cc3ccc(S(=O)(=O)NC4CC4)cc3)c(=O)[nH]c2=O)ccc1F
4. COc1cc(CNC(=O)C#Cc2cn(Cc3ccc(C(N)=O)cc3)c(=O)[nH]c2=O)ccc1F
5. CNS(=O)(=O)c1ccc(Cn2cc(C#CC(=O)NCc3ccc(F)c(OC)c3)c(=O)[nH]c2=O)cc1
6. COc1cc(CNC(=O)C#Cc2cn(Cc3ccc(S(N)(=O)=O)cc3)c(=O)[nH]c2=O)ccc1F
7. COC(=O)[C@H]1CCCN1C(=O)c1ccc(Cn2cc(C#CC(=O)NCc3ccc(F)c(OC)c3)c(=O)[nH]c2=O)cc1
8. COc1cc(CNC(=O)C#Cc2cn(Cc3ccc(S(=O)(=O)N4CCOCC4)cc3)c(=O)[nH]c2=O)ccc1F

1. 309 to 407 nM
2. 501 to 832 nM
3. 67.6 to 112 nM
4. 4790 to 18200 nM
5. 407 to 676 nM
6. 4790 to 18200 nM
7. 1260 to 4900 nM
8. 759 to 1700 nM

---

molecular target: Stromelysin-2 (Homo sapiens); test: Inhibition of MMP10 (unknown origin) assessed using (5-FAM/QX) FRET peptide as substrate by fluorescence assay; settings: read-out: IC50
Sequence (P09238 whole entry): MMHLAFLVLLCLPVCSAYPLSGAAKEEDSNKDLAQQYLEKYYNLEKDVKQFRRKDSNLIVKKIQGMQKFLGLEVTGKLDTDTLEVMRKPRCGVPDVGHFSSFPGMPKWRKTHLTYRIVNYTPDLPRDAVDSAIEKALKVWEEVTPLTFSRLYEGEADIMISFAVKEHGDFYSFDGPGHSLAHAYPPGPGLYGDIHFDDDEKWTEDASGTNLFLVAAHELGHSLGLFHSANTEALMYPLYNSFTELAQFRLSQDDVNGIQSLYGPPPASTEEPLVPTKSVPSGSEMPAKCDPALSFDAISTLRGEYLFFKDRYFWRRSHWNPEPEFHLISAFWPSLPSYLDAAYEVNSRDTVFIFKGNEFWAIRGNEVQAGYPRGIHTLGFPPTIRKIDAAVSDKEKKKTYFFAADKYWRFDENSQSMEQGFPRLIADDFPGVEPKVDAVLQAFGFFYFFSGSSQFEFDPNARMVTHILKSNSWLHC
measured.endpoint: pIC50
Answers are plain numbers, as −log10 of the molar value.

Reference set (5 entries):
mol.smiles: COc1cc(CNC(=O)C#Cc2cn(Cc3ccc(S(=O)(=O)N4CCOCC4)cc3)c(=O)[nH]c2=O)ccc1F
assay.target: Stromelysin-2 (Homo sapiens)
measured.endpoint: pIC50
observed: 5.71
//
mol.smiles: COc1cc(CNC(=O)C#Cc2cn(Cc3ccc(S(N)(=O)=O)cc3)c(=O)[nH]c2=O)ccc1F
assay.target: Stromelysin-2 (Homo sapiens)
measured.endpoint: pIC50
observed: 5.13
//
mol.smiles: COc1cc(CNC(=O)C#Cc2cn(Cc3ccc(C(N)=O)cc3)c(=O)[nH]c2=O)ccc1F
assay.target: Stromelysin-2 (Homo sapiens)
measured.endpoint: pIC50
observed: 5.92
//
mol.smiles: COc1cc(CNC(=O)C#Cc2cn(Cc3ccc(C(=O)NCCO)cc3)c(=O)[nH]c2=O)ccc1F
assay.target: Stromelysin-2 (Homo sapiens)
measured.endpoint: pIC50
observed: 6.46
//
mol.smiles: CNS(=O)(=O)c1ccc(Cn2cc(C#CC(=O)NCc3ccc(F)c(OC)c3)c(=O)[nH]c2=O)cc1
assay.target: Stromelysin-2 (Homo sapiens)
measured.endpoint: pIC50
observed: 6.27

Dear colleague, could you please provide pIC50 for the molecules listed below?
1. COc1cc(CNC(=O)C#Cc2cn(Cc3ccc(C(=O)N(C)C)cc3)c(=O)[nH]c2=O)ccc1F
2. COC(=O)[C@H](C)NC(=O)c1ccc(Cn2cc(C#CC(=O)NCc3ccc(F)c(OC)c3)c(=O)[nH]c2=O)cc1
3. COC(=O)CNS(=O)(=O)c1ccc(Cn2cc(C#CC(=O)NCc3ccc(F)c(OC)c3)c(=O)[nH]c2=O)cc1

1. 6.61
2. 6.12
3. 6.31
